# targetOrTestSystem: T1, human blood protein factor XII (FXII) (human, UniProt P00748 20-615)
# T1 construct: mature; Single-chain zymogen as it circulates in plasma; also called human FXII; plasma-derived FXII
# T1 sequence (looked up): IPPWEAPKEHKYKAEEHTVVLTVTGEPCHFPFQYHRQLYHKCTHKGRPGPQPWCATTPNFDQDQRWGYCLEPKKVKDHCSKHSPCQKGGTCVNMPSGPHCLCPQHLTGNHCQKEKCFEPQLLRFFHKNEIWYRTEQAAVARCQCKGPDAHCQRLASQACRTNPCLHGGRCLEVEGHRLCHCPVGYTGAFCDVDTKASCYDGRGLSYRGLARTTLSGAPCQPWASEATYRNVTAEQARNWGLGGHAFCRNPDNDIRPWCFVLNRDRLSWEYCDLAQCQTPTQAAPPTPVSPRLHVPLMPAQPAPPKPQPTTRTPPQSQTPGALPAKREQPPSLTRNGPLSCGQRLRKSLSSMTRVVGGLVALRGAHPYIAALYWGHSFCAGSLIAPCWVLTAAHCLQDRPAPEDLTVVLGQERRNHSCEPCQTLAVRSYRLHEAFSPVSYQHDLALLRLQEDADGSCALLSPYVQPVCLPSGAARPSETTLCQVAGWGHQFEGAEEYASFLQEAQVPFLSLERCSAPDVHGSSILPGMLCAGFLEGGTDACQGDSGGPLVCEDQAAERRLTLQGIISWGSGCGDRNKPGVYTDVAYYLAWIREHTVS
# assay: BLI (Octet RED96), antibody on anti-human Fc biosensors, antigen in solution, 1:1 fit
reportedProperty: koff

{"binder": "humanized 5C12 antibody HC3 + LC1 (PP13899) (antibody, human IgG4 S228P, kappa, V domains shown, Human IgG4 (S241P hinge modified), expressed in HEK293; also called H7882 + L7880) VH: DVQLQESGPGLVKPSETLSLTCTVSGYSITSGYSWHWIRQPPGKGLEWIGYIQYSGNTNSNPSLKSRVTISRDTSKNQFSLRLSSVTAADTAVYYCARWGSFDYWGQGTMVTVSS VL: EIVLTQSPATLSLSPGERATLSCRASSSVNYLHWYQQKPGQAPRRLIYDTSKLATGIPARFSGSGSGTDYTLTISSLEPEDFAVYYCQQWSGNPPTFGGGTKVEIKR", "reportedProperty": "koff", "result": "0.00015 s⁻¹"}
{"binder": "humanized 5C12 antibody HC1 + LC2 (PP13894) (antibody, human IgG4 S228P, kappa, V domains shown, Human IgG4 (S241P hinge modified), expressed in HEK293; also called H7880 + L7881) VH: QVQLQESGPGLVKPSQTLSLTCTVSGYSITSGYSWHWIRQHPGKGLEWIGYIQYSGNTNSNPSLKSRVTISRDTSKNQFSLKLSSVTAADTAVYYCARWGSFDYWGQGTLVTVSS VL: EIVLTQSPATLSLSPGERATLSCRASSSVNYLHWYQQKPGQAPKRWIYDTSKLATGIPARFSGSGSGTDYTLTISSLEPEDFAVYYCQQWSGNPPTFGGGTKVEIKR", "reportedProperty": "koff", "result": "0.00016 s⁻¹"}
